- Tested on: CV-1P (African monkey green kidney fibroblasts cells)
- assay: In vitro transfection of plasmid DNA, β-galactosidase activity per well
- Type: cell-based
- condition-notes: CVI-P; amphiphile/DNA +/− charge ratio 2

structure-string: Br.CCCCCCCCCCCCCCOC(=O)C1=C(C)NC(C)=C(C(=O)OCCCCCCCCCCCCCC)C1c1ccc[n+](CCCCCCCCC)c1.[Br-]
target-entity: CV-1P (African monkey green kidney fibroblasts cells)
transfection efficiency: 1,5 β-galactosidase units per well

structure-string: CCCCCCCCCCCCOC(=O)C1=C(C)NC(C)=C(C(=O)OCCCCCCCCCCCC)C1c1ccc[n+](C)c1.I.[I-]
target-entity: CV-1P (African monkey green kidney fibroblasts cells)
transfection efficiency: 27,19 β-galactosidase units per well

structure-string: CCCCCCCCCCCCCCCC(=O)OCCOC(=O)C1=C(C)NC(C)=C(C(=O)OCCOC(=O)CCCCCCCCCCCCCCC)C1c1ccc[n+](C)c1.I.[I-]
target-entity: CV-1P (African monkey green kidney fibroblasts cells)
transfection efficiency: 2,89 β-galactosidase units per well

structure-string: CCCCCCCCCCCCCCCCOC(=O)C1=C(C)NC(C)=C(C(=O)OCCCCCCCCCCCCCCCC)C1c1ccc[n+](C)c1.I.[I-]
target-entity: CV-1P (African monkey green kidney fibroblasts cells)
transfection efficiency: 2,2 β-galactosidase units per well
